- assay target: isolated nNOS from rat cerebella (Rattus norvegicus, UniProt P29476)
- test description: Arginine assay according to the invention (HTS NOS assay, cation exchanger filter MTP)
metric name: IC50 (µM)
// note: answer is a bare numeric in µM

Item: C=CCC(=N)NCCC[C@H](N)C(=O)O [Vinyl L-NIO, N5-(1-imino-3-butenyl)-L-ornithine] Test system: isolated nNOS from rat cerebella (Rattus norvegicus, UniProt P29476) Read-out: IC50 Value: ?
5.02
